Task for the reader: assign each of the following compounds its reported Purity after storage, One month.
# test.summary: Accelerated stability test (ICH guideline), purity of the stored sucralose product by HPLC
# Format: physicochemical
# setup.conditions: storage one month; 40° C. ± 2° C., 60% RH ± 5% RH
Answers are plain numbers, in %.

Guide cases for Purity after storage, One month, answers given:
Look up Purity after storage, One month: OC[C@H]1O[C@H](O[C@]2(CCl)O[C@H](CCl)[C@@H](O)[C@@H]2O)[C@H](O)[C@@H](O)[C@H]1Cl [Example 4, sucralose]
99.94

For the compound shown here, OC[C@H]1O[C@H](O[C@]2(CCl)O[C@H](CCl)[C@@H](O)[C@@H]2O)[C@H](O)[C@@H](O)[C@H]1Cl [Example 2, sucralose] , give the reported Purity after storage, One month.
99.65

Look up Purity after storage, One month for this compound: OC[C@H]1O[C@H](O[C@]2(CCl)O[C@H](CCl)[C@@H](O)[C@@H]2O)[C@H](O)[C@@H](O)[C@H]1Cl [Example 1, sucralose]
99.95

Next, consider the following compound.
Which Purity after storage, One month value belongs to OC[C@H]1O[C@H](O[C@]2(CCl)O[C@H](CCl)[C@@H](O)[C@@H]2O)[C@H](O)[C@@H](O)[C@H]1Cl [Comparative Example 2, sucralose] ?
99.73

====

Field: Purity after storage, Six months. Provide a value for each of the compounds that follow.
# test.summary: Accelerated stability test (ICH guideline), purity of the stored sucralose product by HPLC
# Assay type: physicochemical
# setup.conditions: storage six months; 40° C. ± 2° C., 60% RH ± 5% RH
Answers are plain numbers, in %.

Take a look at these entries with their results.
Purity after storage, Six months for OC[C@H]1O[C@H](O[C@]2(CCl)O[C@H](CCl)[C@@H](O)[C@@H]2O)[C@H](O)[C@@H](O)[C@H]1Cl [Raw material, sucralose] ?
99.05

Quick one: Purity after storage, Six months of OC[C@H]1O[C@H](O[C@]2(CCl)O[C@H](CCl)[C@@H](O)[C@@H]2O)[C@H](O)[C@@H](O)[C@H]1Cl [Comparative Example 3, sucralose] ?
99.50

Which measured Purity after storage, Six months value corresponds to OC[C@H]1O[C@H](O[C@]2(CCl)O[C@H](CCl)[C@@H](O)[C@@H]2O)[C@H](O)[C@@H](O)[C@H]1Cl [Example 5, sucralose] ?
99.73

Turning now to a further compound:
# input compound: OC[C@H]1O[C@H](O[C@]2(CCl)O[C@H](CCl)[C@@H](O)[C@@H]2O)[C@H](O)[C@@H](O)[C@H]1Cl [Example 1, sucralose] ; wanted: its Purity after storage, Six months
99.87

====

# test.summary: Bulk density determination (50 mL measuring cylinder, free-fall impact until compacted)
# Format: physicochemical
# setup.conditions: sample compacted in 50 mL measuring cylinder, free-fall impact at 5 cm height
readout.type: Bulk density
# do not omit the unit; it follows the number

What does the data say about its Bulk density? Entry: OC[C@H]1O[C@H](O[C@]2(CCl)O[C@H](CCl)[C@@H](O)[C@@H]2O)[C@H](O)[C@@H](O)[C@H]1Cl [Example 3, sucralose]
1.067 g/mL

Looking for the measured Bulk density of OC[C@H]1O[C@H](O[C@]2(CCl)O[C@H](CCl)[C@@H](O)[C@@H]2O)[C@H](O)[C@@H](O)[C@H]1Cl [Comparative Example 3, sucralose] , can you help?
0.979 g/mL

Please examine the following record next.
Report Bulk density for OC[C@H]1O[C@H](O[C@]2(CCl)O[C@H](CCl)[C@@H](O)[C@@H]2O)[C@H](O)[C@@H](O)[C@H]1Cl [Raw material, sucralose] please.
0.978 g/mL

====

# test.summary: Accelerated stability test (ICH guideline), purity of the stored sucralose product by HPLC
# Format: physicochemical
# setup.conditions: storage one month; 40° C. ± 2° C., 60% RH ± 5% RH
Assignment: determine reported Purity after storage, One month for the given molecules.

Consider the worked cases shown below.
Query (molecule): OC[C@H]1O[C@H](O[C@]2(CCl)O[C@H](CCl)[C@@H](O)[C@@H]2O)[C@H](O)[C@@H](O)[C@H]1Cl [Example 3, sucralose] ; field requested: Purity after storage, One month
99.63%

Entry OC[C@H]1O[C@H](O[C@]2(CCl)O[C@H](CCl)[C@@H](O)[C@@H]2O)[C@H](O)[C@@H](O)[C@H]1Cl [Example 5, sucralose] : reported Purity after storage, One month = ?
99.85%

Query (molecule): OC[C@H]1O[C@H](O[C@]2(CCl)O[C@H](CCl)[C@@H](O)[C@@H]2O)[C@H](O)[C@@H](O)[C@H]1Cl [Comparative Example 1, sucralose] ; field requested: Purity after storage, One month
99.61%

Bench note: what Purity after storage, One month did OC[C@H]1O[C@H](O[C@]2(CCl)O[C@H](CCl)[C@@H](O)[C@@H]2O)[C@H](O)[C@@H](O)[C@H]1Cl [Raw material, sucralose] show?
99.36%

Please give the measured Purity after storage, One month for this molecule: OC[C@H]1O[C@H](O[C@]2(CCl)O[C@H](CCl)[C@@H](O)[C@@H]2O)[C@H](O)[C@@H](O)[C@H]1Cl [Comparative Example 3, sucralose]
99.63%

// below: Purity after storage, One month requested for another molecule
What does the data say about its Purity after storage, One month? Entry: OC[C@H]1O[C@H](O[C@]2(CCl)O[C@H](CCl)[C@@H](O)[C@@H]2O)[C@H](O)[C@@H](O)[C@H]1Cl [Example 6, sucralose]
99.74%

====

# test.summary: Bulk density determination (50 mL measuring cylinder, free-fall impact until compacted)
# Assay type: physicochemical
# setup.conditions: sample compacted in 50 mL measuring cylinder, free-fall impact at 5 cm height
readout.type: Bulk density (g/mL)
One number for each entry, in g/mL.

Give its Bulk density value. Item: OC[C@H]1O[C@H](O[C@]2(CCl)O[C@H](CCl)[C@@H](O)[C@@H]2O)[C@H](O)[C@@H](O)[C@H]1Cl [Example 1, sucralose]
1.109

What value of Bulk density has been reported for the following compound? OC[C@H]1O[C@H](O[C@]2(CCl)O[C@H](CCl)[C@@H](O)[C@@H]2O)[C@H](O)[C@@H](O)[C@H]1Cl [Example 4, sucralose]
1.110

Here is the next item to consider.
Endpoint output: Bulk density of OC[C@H]1O[C@H](O[C@]2(CCl)O[C@H](CCl)[C@@H](O)[C@@H]2O)[C@H](O)[C@@H](O)[C@H]1Cl [Comparative Example 2, sucralose] . Value?
1.021

====

# test.summary: Accelerated stability test (ICH guideline), purity of the stored sucralose product by HPLC
# Type: physicochemical
# setup.conditions: storage six months; 40° C. ± 2° C., 60% RH ± 5% RH
readout.type: Purity after storage, Six months (%)
One number for each entry, in %.

Here are 4 molecules. What values of Purity after storage, Six months were reported for them?
1. OC[C@H]1O[C@H](O[C@]2(CCl)O[C@H](CCl)[C@@H](O)[C@@H]2O)[C@H](O)[C@@H](O)[C@H]1Cl [Example 3, sucralose]
2. OC[C@H]1O[C@H](O[C@]2(CCl)O[C@H](CCl)[C@@H](O)[C@@H]2O)[C@H](O)[C@@H](O)[C@H]1Cl [Example 6, sucralose]
3. OC[C@H]1O[C@H](O[C@]2(CCl)O[C@H](CCl)[C@@H](O)[C@@H]2O)[C@H](O)[C@@H](O)[C@H]1Cl [Example 4, sucralose]
4. OC[C@H]1O[C@H](O[C@]2(CCl)O[C@H](CCl)[C@@H](O)[C@@H]2O)[C@H](O)[C@@H](O)[C@H]1Cl [Comparative Example 1, sucralose]

1: 99.47; 2: 99.63; 3: 99.85; 4: 99.51

Report Purity after storage, Six months for every entry below.
1. OC[C@H]1O[C@H](O[C@]2(CCl)O[C@H](CCl)[C@@H](O)[C@@H]2O)[C@H](O)[C@@H](O)[C@H]1Cl [Comparative Example 2, sucralose]
2. OC[C@H]1O[C@H](O[C@]2(CCl)O[C@H](CCl)[C@@H](O)[C@@H]2O)[C@H](O)[C@@H](O)[C@H]1Cl [Example 2, sucralose]

99.63
99.50

====

# test.summary: Accelerated stability test (ICH guideline), purity of the stored sucralose product by HPLC
# Type: physicochemical
# setup.conditions: storage three months; 40° C. ± 2° C., 60% RH ± 5% RH
# Excerpt: A test and analysis method for the purity of sucralose involved in the present disclosure could refer to the Chinese National Standard “GB25531-2010 for Food Additive Sucralose”. […]
readout.type: Purity after storage, Three months (%)
Answers are plain numbers, in %.

Consider the reported Purity after storage, Three months for these compounds:
Quick one: Purity after storage, Three months for OC[C@H]1O[C@H](O[C@]2(CCl)O[C@H](CCl)[C@@H](O)[C@@H]2O)[C@H](O)[C@@H](O)[C@H]1Cl [Example 6, sucralose] ?
99.70

// Purity after storage, Three months lookup, key: OC[C@H]1O[C@H](O[C@]2(CCl)O[C@H](CCl)[C@@H](O)[C@@H]2O)[C@H](O)[C@@H](O)[C@H]1Cl [Comparative Example 1, sucralose]
99.57

Given the entry OC[C@H]1O[C@H](O[C@]2(CCl)O[C@H](CCl)[C@@H](O)[C@@H]2O)[C@H](O)[C@@H](O)[C@H]1Cl [Comparative Example 3, sucralose] , report its measured Purity after storage, Three months.
99.58

Batch of 2 compounds: report Purity after storage, Three months for each.
1. OC[C@H]1O[C@H](O[C@]2(CCl)O[C@H](CCl)[C@@H](O)[C@@H]2O)[C@H](O)[C@@H](O)[C@H]1Cl [Example 2, sucralose]
2. OC[C@H]1O[C@H](O[C@]2(CCl)O[C@H](CCl)[C@@H](O)[C@@H]2O)[C@H](O)[C@@H](O)[C@H]1Cl [Example 1, sucralose]

1: 99.59; 2: 99.92
